test system: Ctenocephalides felis; details: 24 h; data from laboratory 1
Class field: derived from C. felis Mortality (%) 24 h; ranges lower level (below 20%), middle level (20% to below 50%), upper level (50% or more)

Some solved cases for reference:
CC(=NN(C)c1ccc(Cl)nn1)c1cc(Cl)ccc1NS(=O)(=O)C(F)(F)F [Compound 194] ... lower level
C#CCN(N=C(C)c1cc(Cl)ccc1NS(=O)(=O)C(F)(F)F)c1ccccc1 [Compound 175] ... middle level
CC(=NNS(=O)(=O)c1ccc(C)cc1)c1cc(Cl)ccc1NS(=O)(=O)C(F)(F)F [Compound 174] ... middle level
O=S(=O)(Nc1ccc(Cl)cc1C1=NN(c2cccc(Cl)c2)CC1)C(F)(F)F [Compound 231] ... middle level
CC(=NN(C)C(=O)c1ccccc1)c1cc(Cl)ccc1NS(=O)(=O)C(F)(F)F [Compound 138] ... upper level

Please classify: CC(=NN(C)c1ccccc1)c1cc(Cl)ccc1N(COC(=O)C(C)(C)C)S(=O)(=O)C(F)(F)F [Compound 111]
middle level

Let us now turn to CCC(=NNC(=O)OC(C)(C)C)c1cc(Cl)ccc1NS(=O)(=O)C(F)(F)F [Compound 89]
middle level

Data provenance is patent US20070238700A1.
